B1: library; a variant is named by its letters at N, in order (parent)
chain: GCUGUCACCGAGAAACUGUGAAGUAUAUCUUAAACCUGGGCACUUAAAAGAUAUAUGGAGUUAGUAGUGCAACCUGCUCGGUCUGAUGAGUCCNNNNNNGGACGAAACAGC

# Variants of: B1
# assay-procedure: normalized RNA/DNA level with ligand (relative to sTRSVctl = 100) (log10 (% of sTRSVctl)); HEK293T; ligand: cyclic di-GMP (c-di-GMP-II aptamer); ligand concentration (+) RNA-Seq: 1 mM; higher = less ribozyme self-cleavage, higher mRNA level
# cond: reporter: mCherry (pCS4076), ligand present: yes
endpoint-label: normalized RNA/DNA level with ligand (log10)
Lab note: record just the number, no unit beside it.

A selection of reference data follows.
Name the recorded normalized RNA/DNA level with ligand (log10) for "GGCCAC" .
1.88

Request: "CAUCAC"
1.8

Continuing:
Name the recorded normalized RNA/DNA level with ligand (log10) for "AGAGCU" .
1.84

Request: "UUCACC"
1.89

Request: "UCGUAG"
1.82
